Can you tell me TGI for the items I'm about to list?
system: HCT-15 colon; experiment: NCI tumour cell line growth inhibition, 48 h

State, in one line, measured TGI of CC(C)C(=O)Oc1cc2c(=O)oc3c(OC(=O)C(C)C)c(OC(=O)C(C)C)cc4c(=O)oc(c1OC(=O)C(C)C)c2c34
> 100 µM

State, in one line, measured TGI of NC1=NCC(CN2CCCC2)O1 (configuration not stated)
> 100 µM

State, in one line, measured TGI of COc1cc(/C=C(\C#N)C(N)=C(C#N)C#N)cc(O)c1O
> 100 µM

State, in one line, measured TGI of CNC(=O)CN(CC(N)=O)C(N)=O
> 100 µM

State, in one line, measured TGI of c1ccc(-c2nnn(CCN3CCCCC3)n2)cc1
> 100 µM

State, in one line, measured TGI of CC1=C(C(=O)Nc2ccc(Cl)c(Cl)c2)C(c2ccccc2O)NC(=O)N1 (configuration not stated)
> 50 µM

State, in one line, measured TGI of C=C(C)[C@@H]1CC[C@]2(C(=O)O)CC[C@]3(C)[C@H](CCC4[C@@]5(C)CC[C@H](C(=O)/C=C/c6ccc(O)c(O)c6)C(C)(C)[C@@H]5CC[C@]43C)[C@@H]12 (some centres not stated)
26.8 µM

State, in one line, measured TGI of COc1c(C)c(C/C=C(\C)CC/C=C(\C)CCC=C(C)C)c(OC)c(OC)c1OC
> 100 µM

State, in one line, measured TGI of NC(=O)CO/N=C1/C(c2c(O)[nH]c3ccccc23)=Nc2ccccc21
> 100 µM

State, in one line, measured TGI of CN1C(=O)C(O)CC1c1cccc(C(F)(F)F)c1 (configuration not stated)
> 100 µM

State, in one line, measured TGI of Cc1ccc(S(=O)(=O)N(CC(O)COc2ccccc2)c2ccc(F)cc2F)cc1 (configuration not stated)
30.8 µM

State, in one line, measured TGI of CCOP(=O)(Nc1ccc2oc(=O)c3ccccc3c2c1)OCC
> 100 µM

State, in one line, measured TGI of Cc1nc(-n2nc(-c3ccccc3)cc2-c2ccccc2)sc1C(/C=C/c1ccc([N+](=O)[O-])cc1)=N/NC(=O)c1ccncc1
96.2 µM

State, in one line, measured TGI of CCOc1cc(-c2ccc[nH]2)[nH]c1/C=C1\N=C(C)C(C(=O)OC)=C1C
0.0705 µM

State, in one line, measured TGI of Cc1nc(N)nc2ccccc12
> 100 µM

State, in one line, measured TGI of Cc1ccc(-c2n[nH]c(=O)n2/N=C\c2ccccc2)cc1
> 100 µM

State, in one line, measured TGI of O=C(c1ccc(Cl)cc1)C1OC12C(=O)Nc1ccccc12 (configuration not stated)
11.2 µM

* * *

Can you tell me TGI for the items I'm about to list?
test system: NCI-H23 lung; experiment: NCI tumour cell line growth inhibition, 48 h

State, in one line, measured TGI of O=c1[nH]c2ccccc2n1-c1n[nH]c2ccccc12
> 100 µM

State, in one line, measured TGI of COc1ccc(-c2cc(C(O)C3CCCCN3)c3ccccc3n2)cc1 (stereo unspecified)
31.6 µM

State, in one line, measured TGI of O=C(NNCc1ccc(Cl)cc1)Nc1cccc2ccccc12
> 100 µM

State, in one line, measured TGI of COC(=O)c1c(C)nc(C)c(NO)c1-c1ccccc1C(F)(F)F
84.3 µM

State, in one line, measured TGI of COc1cc2cc3c4c(cc(OC)c(OC)c4c2cc1OC)CCN3C(=O)CCC(=O)NCCCN(C)C
> 100 µM

State, in one line, measured TGI of O=c1cc(NCc2ccncc2)[nH]c(=O)[nH]1
> 100 µM

State, in one line, measured TGI of COC(OC)c1cc2c(cc1C(=O)[C@@]13CCC[C@@H]1NC(=O)O3)OCO2
> 100 µM

State, in one line, measured TGI of Cc1cc2cc3c(cc2c(-c2ccc(N)cc2)n1)OCO3
> 100 µM

State, in one line, measured TGI of Cc1c(C(=O)CSc2nc3ccccc3[nH]2)c(=O)n(-c2ccccc2)n1C
> 100 µM

State, in one line, measured TGI of COc1cc(/C=C(\C#N)C(N)=C(C#N)C#N)cc(O)c1O
> 100 µM

State, in one line, measured TGI of Oc1[nH]c2cc(Cl)ccc2c1/C=c1/ccc2c(c1)N=C(c1cc(F)cc(F)c1)N=2
13 µM

Data provenance: PubChem BioAssay (NCI)
